Reported Population Fragmented Nuclei (%) is given for each of the following molecules.
- Test system: U2OS
- TEST METHOD NOTES: Multiplex assay against U2OS
- Assay type: toxicity, cell-based
- MEASUREMENT CONDITIONS: human, 12 h, 10 µM, compound concentration 10 uM, replicate 1
MEASURED ENDPOINT: Population Fragmented Nuclei (%)

- CN(C)CC#Cc1ccc(OCCCc2sc(N3CCc4cccc(C(=O)Nc5nc6ccccc6s5)c4C3)nc2C(=O)O)c(F)c1 [A-1155463]: 25
- COc1cc(-n2cnc3cc(-c4ccc(Cl)cc4)sc3c2=O)ccc1OCCN1CCCC1: 32
- Cc1nc(-c2cn3c(n2)-c2ccc(-c4cnn(C(C)(C)C(N)=O)c4)cc2OCC3)n(C(C)C)n1 [TASELISIB]: 5
- c1cn2cc(-c3ccc4cn[nH]c4c3)nc(Nc3ccc(N4CCOCC4)cc3)c2n1 [ENTOSPLETINIB]: 37
- Cc1nc(-c2ccc(-c3ccc(C(=O)N4CCc5cc6c(cc54)C4(CCN(C)CC4)CO6)cc3)c(C)c2)no1 [SB-224289]: 19
- CCN(CC)CCCCNc1ncc2cc(-c3cc(OC)cc(OC)c3)c(NC(=O)NC(C)(C)C)nc2n1 [PD-173074]: 20
- Cc1csc2c(N[C@@H](C)CN3CCN(S(=O)(=O)c4ccc(Cl)c(Cl)c4)CC3)ncnc12: 15
- C=CC(=O)Nc1cccc(C(=O)Nc2ccc(Nc3cc(-c4[nH]c(SC)nc4C)ccn3)cc2)c1: 7
- CN(C)c1ncnc(-c2ccc3nc(Nc4cc(CN5CCN(C(=O)CC(F)(F)F)CC5)ccn4)[nH]c3c2)c1Cl [BAY-440]: 5
- CN1CCN(c2ccc(OC(F)(F)F)c(Nc3ncc4c(n3)-c3c(c(C(N)=O)nn3CCO)CC4)c2)CC1 [ONVANSERTIB]: 10
- Cc1sc2c(c1C)C(c1ccc(Cl)cc1)=N[C@@H](CC(=O)OC(C)(C)C)c1nnc(C)n1-2: 12
- COc1cc2nccc(Oc3ccc(NC(=O)Nc4cc(C)on4)c(Cl)c3)c2cc1OC.O: 16
- CN1CCCC(n2nc(Cc3ccc(Cl)cc3)c3ccccc3c2=O)CC1.Cl (stereo unspecified) [AZELASTINE HYDROCHLORIDE]: 18
- Cc1cc(C)cc(-c2cnc3cc(Cl)c(-c4cccc(O)c4)cc3c2OCCCN)c1: 33
- Cc1[nH]c(/C=C2\C(=O)Nc3ccc(S(=O)(=O)N(C)c4cccc(Cl)c4)cc32)c(C)c1C(=O)N1CCN(C)CC1: 12
